Target: chimeric human RORγ-Gal4 receptor (Homo sapiens)
Sequence (P51449 269-508 limits assumed): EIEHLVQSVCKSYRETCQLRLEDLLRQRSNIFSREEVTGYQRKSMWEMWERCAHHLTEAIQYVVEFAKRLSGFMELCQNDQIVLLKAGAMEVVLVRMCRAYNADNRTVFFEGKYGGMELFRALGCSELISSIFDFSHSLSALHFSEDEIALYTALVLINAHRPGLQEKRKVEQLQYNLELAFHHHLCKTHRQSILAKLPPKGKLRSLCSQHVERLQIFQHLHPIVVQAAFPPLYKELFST
Test: transient transactivation assay (RORγ-Gal4 luciferase reporter)
Format: cell-based
Conditions: Cos-7 cells transfected with RORγ-Gal4 and 5Gal4 pGL3 TK Luc reporter; overnight incubation; T0901317 at 10^-5 M as reference; read-out: IC50
pIC50: −log10 of the molar value.
endpoint: pIC50

Guide cases for pIC50, answers given:
1. Cc1cc(C(F)(F)F)cc2c1cc(Cc1c(Cl)ccc(C(=O)N3CCC(C)(C(=O)O)CC3)c1Cl)n2C ... 6.30 to 7.00
2. CC(=O)N1CCN(C(=O)c2ccc(Cl)c(Cc3cc4ccc(C(F)(F)F)cc4n3C)c2Cl)CC1 ... 6.30 to 7.00
3. O=C(O)CC1CCN(C(=O)c2ccc(Cl)c(Cn3ccc4cc(C(F)(F)F)cc(Cl)c43)c2Cl)CC1 ... > 7.00
4. CNC(=O)[C@@H]1CCCN1C(=O)c1ccc(Cl)c(Cc2nc3c(C)cc(C(F)(F)F)cc3n2C)c1Cl ... 5.00 to 6.00
5. Cc1cc(C(F)(F)F)cc2c1c(Cc1c(Cl)ccc(C(=O)N3CCC(CC(=O)O)CC3)c1Cl)cn2C ... > 7.00
6. Cc1ccc(C(=O)N2CCC(CC(=O)O)CC2)c(C)c1Cn1ccc2cc(OC(F)(F)F)cc(C)c21 ... > 7.00

Param item = "COCCC1CCN(Cc2ccc(Cl)c(Cc3nc4c(C)cc(C(F)(F)F)cc4n3C)c2Cl)CC1" ; retrieve measured pIC50.
6.30 to 7.00

Param item = "Cc1cc(C(F)(F)F)cc2c1nc(Cc1c(Cl)ccc(C(=O)N3CCN(C(C)C)CC3)c1Cl)n2C" ; retrieve measured pIC50.
6.30 to 7.00

Numbers sourced from patent US10106501B2.
